# system.name: Hematopoietic prostaglandin D synthase (Homo sapiens)
# Sequence (O60760 whole entry, the tested form may be a part): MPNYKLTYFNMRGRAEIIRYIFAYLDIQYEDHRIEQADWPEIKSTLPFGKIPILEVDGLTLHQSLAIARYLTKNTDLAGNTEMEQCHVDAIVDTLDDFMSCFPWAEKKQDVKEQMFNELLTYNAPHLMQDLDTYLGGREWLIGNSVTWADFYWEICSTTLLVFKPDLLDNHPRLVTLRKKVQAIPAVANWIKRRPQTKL
# test.name: Fluorescence Polarization Binding Assay (FPBA): This assay essentially is available from Cayman Chemical Company as Catalog item #600007. The test data reported for the aforementioned Examples (H-PGDS FPBA IC50) were generated using a 96-well, instead of the 384-well, format.Detection analyte and H-PGDS-MBP fusion enzyme were incubated in the presence of reduced glutathione (5 mM) for 60-90 minutes at room temperature and FP was measured using a TECAN SAFIRE 2 plate reader equipped with absorbance, fluorescence, fluorescence polarization and FRET capabilities. Assays were performed in 96-well microtiter plates in 100 µL of total sample volume. Excitation and emission wavelengths appropriate for the employed detection analyte were used.
parameter.measured: pIC50
Notebook: values listed as pIC50 are -log10 of the concentration (mol/L).

# lookup: pIC50 of COC(=O)c1cc(-c2cnc(Oc3ccccc3)nc2)[nH]n1
5.70
